# tested.target: HMalT (His-tagged MalT) (Escherichia coli, UniProt P06993, Q70C/E395C)
# Construct: full-length, His-tagged; purified on Ni2+ resin then Superdex 200; monomeric in resting form, multimerizes with maltotriose and ATP
# Sequence (P06993 whole entry Q70C/E395C): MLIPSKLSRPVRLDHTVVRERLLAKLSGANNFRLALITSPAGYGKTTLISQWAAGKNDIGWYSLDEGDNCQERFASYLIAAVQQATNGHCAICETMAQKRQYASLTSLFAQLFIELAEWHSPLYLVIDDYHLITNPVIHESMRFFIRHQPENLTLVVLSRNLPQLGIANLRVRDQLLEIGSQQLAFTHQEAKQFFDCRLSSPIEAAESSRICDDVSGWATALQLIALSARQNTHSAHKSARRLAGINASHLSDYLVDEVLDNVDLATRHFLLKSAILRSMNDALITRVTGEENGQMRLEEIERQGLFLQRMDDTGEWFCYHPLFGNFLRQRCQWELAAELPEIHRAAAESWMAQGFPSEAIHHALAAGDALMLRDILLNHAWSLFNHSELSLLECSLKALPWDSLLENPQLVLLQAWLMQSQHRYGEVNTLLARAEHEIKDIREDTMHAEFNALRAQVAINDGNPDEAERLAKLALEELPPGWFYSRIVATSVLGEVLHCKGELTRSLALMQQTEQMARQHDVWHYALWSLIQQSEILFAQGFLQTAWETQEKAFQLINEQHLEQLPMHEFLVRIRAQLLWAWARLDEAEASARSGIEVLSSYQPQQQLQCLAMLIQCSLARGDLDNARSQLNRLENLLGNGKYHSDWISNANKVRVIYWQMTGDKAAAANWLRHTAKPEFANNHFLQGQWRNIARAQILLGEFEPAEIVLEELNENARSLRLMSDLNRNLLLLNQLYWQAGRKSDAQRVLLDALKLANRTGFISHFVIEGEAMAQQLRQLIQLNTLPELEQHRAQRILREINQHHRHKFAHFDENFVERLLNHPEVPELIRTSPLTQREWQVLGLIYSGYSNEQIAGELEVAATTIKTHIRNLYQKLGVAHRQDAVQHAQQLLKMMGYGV
# experimental.protocol: limited proteinase K proteolysis protection (arm-sensor hinge), SDS-PAGE quantification, binding isotherm
# test.parameters: 50 mM HEPES pH 8.0, 10.1 mM Mg acetate, 0.44 mM ATP, 25°C; no reducing agent: oxidized form, C70-C395 disulfide locks NOD closed; full saturation assumed at 50 mM; read-out: KD (apparent dissociation constant)
outcome.measure: Kd (mM)
Report the value in mM with no unit label.

Kd of OC[C@H]1O[C@H](O[C@H]2[C@H](O)[C@@H](O)[C@@H](O[C@H]3[C@H](O)[C@@H](O)C(O)O[C@@H]3CO)O[C@@H]2CO)[C@H](O)[C@@H](O)[C@@H]1O (stereo partly shown) , assay on HMalT (His-tagged MalT) (Escherichia coli, UniProt P06993, Q70C/E395C), is 2.6
